Values from ChEMBL document CHEMBL2203180

# EXPERIMENT_SUMMARY: Induction of nitric oxide release in 0.1 mM phosphate buffer solution at pH 7.4 assessed as nitrate/nitrite level after 150 mins by Griess assay
# Format: physicochemical
# CONDITION: pH 7.4, 2.5 h
METRIC_NAME: Activity (µmol/L)

Look over these answered cases.
1. COc1ccc2c(c1OCC(=O)OCCCO[N+](=O)[O-])COC(C)C2=O (configuration not stated)	4.86
2. COc1ccc2c(c1OCCO[N+](=O)[O-])COC(C)C2=O (configuration not stated)	16.26
3. COc1cc2c(cc1OCCO[N+](=O)[O-])COC(C)C2=O (configuration not stated)	14.72
4. COc1cc2c(cc1OCCO[N+](=O)[O-])C(=O)C(C)OC2 (configuration not stated)	10.06
5. COc1ccc2c(c1OCC(=O)OCCCCO[N+](=O)[O-])COC(C)C2=O (configuration not stated)	8.72

(I) COc1cc2c(cc1OCC(=O)OCCCO[N+](=O)[O-])C(=O)C(C)OC2 (configuration not stated)
(II) COc1ccc2c(c1OCC(=O)OCCO[N+](=O)[O-])COC(C)C2=O (configuration not stated)
Input: Min Activity? I | II Indicate your choice by writing its label.
Output: I
(I: 8.72 µmol/L, II: 16.68 µmol/L)

* * *

# EXPERIMENT_SUMMARY: Induction of nitric oxide release in 0.1 mM phosphate buffer solution at pH 7.4 assessed as nitrate/nitrite level after 150 mins by Griess assay
# Assay type: physicochemical
# CONDITION: pH 7.4, 2.5 h
METRIC_NAME: Activity (µmol/L)

1) COc1cc2c(cc1OCC(=O)OCCCCO[N+](=O)[O-])COC(C)C2=O (stereo unspecified)	14.92
2) COc1cc2c(cc1OCC(=O)OCCCO[N+](=O)[O-])COC(C)C2=O (stereo unspecified)	20.62
3) COc1cc2c(cc1OCCCCO[N+](=O)[O-])COC(C)C2=O (stereo unspecified)	12.99

(P) COc1cc2c(cc1OCCCCO[N+](=O)[O-])C(=O)C(C)OC2 (stereo unspecified)
(Q) COc1cc2c(cc1OCC(=O)OCCO[N+](=O)[O-])C(=O)C(C)OC2 (stereo unspecified)
(R) COc1cc2c(cc1OCCCO[N+](=O)[O-])COC(C)C2=O (stereo unspecified)
Input: Rank the 3 compounds: largest Activity first, smallest last. List the labels, following the order given in the request.
Output: R, Q, P
(R: 28.58 µmol/L, Q: 13.99 µmol/L, P: 7.54 µmol/L)

(A) COc1ccc2c(c1OCCCO[N+](=O)[O-])COC(C)C2=O (stereo unspecified)
(B) COc1cc2c(cc1OCC(=O)OCCO[N+](=O)[O-])COC(C)C2=O (stereo unspecified)
(C) COc1ccc2c(c1OCCCCO[N+](=O)[O-])COC(C)C2=O (stereo unspecified)
Input: Order by Activity, ascending. List the labels, following the order given in the request.
Output: C, A, B

(I) COc1cc2c(cc1OCC(=O)OCCCCO[N+](=O)[O-])C(=O)C(C)OC2 (stereo unspecified)
(II) COc1cc2c(cc1OCCCO[N+](=O)[O-])C(=O)C(C)OC2 (stereo unspecified)
Input: Rank I against II by their Activity values and give the higher one. Indicate your choice by writing its label.
Output: I
(I: 10.81 µmol/L, II: 7.04 µmol/L)

* * *

# EXPERIMENT_SUMMARY: Induction of nitric oxide release in 0.1 mM phosphate buffer solution at pH 7.4 assessed as nitrate/nitrite level after 80 mins by Griess assay
# Format: physicochemical
# CONDITION: pH 7.4, 80 min
METRIC_NAME: Activity (µmol/L)

Look over these answered cases.
1) COc1cc2c(cc1OCC(=O)OCCCCO[N+](=O)[O-])COC(C)C2=O (stereo not drawn)	11.7
2) COc1cc2c(cc1OCC(=O)OCCCO[N+](=O)[O-])C(=O)C(C)OC2 (stereo not drawn)	7.77
3) COc1cc2c(cc1OCC(=O)OCCO[N+](=O)[O-])COC(C)C2=O (stereo not drawn)	11.11
4) COc1ccc2c(c1OCC(=O)OCCO[N+](=O)[O-])COC(C)C2=O (stereo not drawn)	13.12
5) COc1ccc2c(c1OCCCO[N+](=O)[O-])COC(C)C2=O (stereo not drawn)	9.27

(a) COc1cc2c(cc1OCCCO[N+](=O)[O-])C(=O)C(C)OC2 (stereo not drawn)
(b) COc1cc2c(cc1OCC(=O)OCCCO[N+](=O)[O-])COC(C)C2=O (stereo not drawn)
(c) COc1ccc2c(c1OCC(=O)OCCCO[N+](=O)[O-])COC(C)C2=O (stereo not drawn)
Input: Rank the 3 molecules: largest Activity first, smallest last. List the labels, following the order given in the request.
Output: b, a, c
(b: 14.7 µmol/L, a: 6.77 µmol/L, c: 3.84 µmol/L)

(a) COc1cc2c(cc1OCCO[N+](=O)[O-])COC(C)C2=O (stereo not drawn)
(b) COc1cc2c(cc1OCCCO[N+](=O)[O-])COC(C)C2=O (stereo not drawn)
Input: Rank a against b by their Activity values and give the higher one. Indicate your choice by writing its label.
Output: b

* * *

# EXPERIMENT_SUMMARY: Induction of nitric oxide release in 0.1 mM phosphate buffer solution at pH 7.4 assessed as nitrate/nitrite level after 100 mins by Griess assay
# Type: physicochemical
# CONDITION: pH 7.4, 100 min
METRIC_NAME: Activity (µmol/L)

Look over these answered cases.
1) COc1cc2c(cc1OCCCCO[N+](=O)[O-])COC(C)C2=O (stereo unspecified)	8.31
2) COc1ccc2c(c1OCCCO[N+](=O)[O-])COC(C)C2=O (stereo unspecified)	9.4

(a) COc1ccc2c(c1OCCO[N+](=O)[O-])COC(C)C2=O (stereo unspecified)
(b) COc1cc2c(cc1OCCCCO[N+](=O)[O-])C(=O)C(C)OC2 (stereo unspecified)
Input: Rank a against b by their Activity values and give the higher one. Indicate your choice by writing its label.
Output: a
(a: 10.5 µmol/L, b: 6.05 µmol/L)

(I) COc1cc2c(cc1OCC(=O)OCCO[N+](=O)[O-])COC(C)C2=O (stereo unspecified)
(II) COc1ccc2c(c1OCC(=O)OCCCCO[N+](=O)[O-])COC(C)C2=O (stereo unspecified)
Input: Rank I against II by their Activity values and give the higher one. Indicate your choice by writing its label.
Output: I
(I: 11.34 µmol/L, II: 6.55 µmol/L)

* * *

# EXPERIMENT_SUMMARY: Induction of nitric oxide release in 0.1 mM phosphate buffer solution at pH 7.4 assessed as nitrate/nitrite level after 60 mins by Griess assay
# Type: physicochemical
# CONDITION: pH 7.4, 1 h
METRIC_NAME: Activity (µmol/L)

Look over these answered cases.
1. COc1ccc2c(c1OCCCCO[N+](=O)[O-])COC(C)C2=O (stereo not drawn)	3.02
2. COc1ccc2c(c1OCC(=O)OCCCO[N+](=O)[O-])COC(C)C2=O (stereo not drawn)	2.27
3. COc1ccc2c(c1OCCO[N+](=O)[O-])COC(C)C2=O (stereo not drawn)	4.53
4. COc1cc2c(cc1OCCCO[N+](=O)[O-])COC(C)C2=O (stereo not drawn)	18.12
5. COc1ccc2c(c1OCCCO[N+](=O)[O-])COC(C)C2=O (stereo not drawn)	9.23

(I) COc1cc2c(cc1OCC(=O)OCCO[N+](=O)[O-])C(=O)C(C)OC2 (stereo not drawn)
(II) COc1ccc2c(c1OCC(=O)OCCCCO[N+](=O)[O-])COC(C)C2=O (stereo not drawn)
Input: Rank I against II by their Activity values and give the higher one. Indicate your choice by writing its label.
Output: I

(I) COc1cc2c(cc1OCCO[N+](=O)[O-])COC(C)C2=O (stereo not drawn)
(II) COc1cc2c(cc1OCC(=O)OCCCO[N+](=O)[O-])C(=O)C(C)OC2 (stereo not drawn)
Input: Rank I against II by their Activity values and give the higher one. Indicate your choice by writing its label.
Output: I
(I: 11.24 µmol/L, II: 6.29 µmol/L)

(1) COc1cc2c(cc1OCC(=O)OCCCCO[N+](=O)[O-])C(=O)C(C)OC2 (stereo not drawn)
(2) COc1cc2c(cc1OCCCCO[N+](=O)[O-])C(=O)C(C)OC2 (stereo not drawn)
(3) COc1ccc2c(c1OCC(=O)OCCO[N+](=O)[O-])COC(C)C2=O (stereo not drawn)
Input: Order by Activity, ascending. List the labels, following the order given in the request.
Output: 2, 1, 3

* * *

# EXPERIMENT_SUMMARY: Induction of nitric oxide release in 0.1 mM phosphate buffer solution at pH 7.4 assessed as nitrate/nitrite level after 30 mins by Griess assay
# Type: physicochemical
# CONDITION: pH 7.4, 0.5 h
METRIC_NAME: Activity (µmol/L)

Look over these answered cases.
1. COc1cc2c(cc1OCC(=O)OCCCO[N+](=O)[O-])C(=O)C(C)OC2 (stereo not given)	5.76
2. COc1cc2c(cc1OCC(=O)OCCO[N+](=O)[O-])COC(C)C2=O (stereo not given)	6.94

(a) COc1cc2c(cc1OCC(=O)OCCCCO[N+](=O)[O-])C(=O)C(C)OC2 (stereo not given)
(b) COc1cc2c(cc1OCCCO[N+](=O)[O-])COC(C)C2=O (stereo not given)
(c) COc1cc2c(cc1OCC(=O)OCCO[N+](=O)[O-])C(=O)C(C)OC2 (stereo not given)
Input: Rank the 3 compounds: largest Activity first, smallest last. List the labels, following the order given in the request.
Output: b, c, a

(a) COc1ccc2c(c1OCC(=O)OCCCCO[N+](=O)[O-])COC(C)C2=O (stereo not given)
(b) COc1ccc2c(c1OCCCO[N+](=O)[O-])COC(C)C2=O (stereo not given)
Input: Min Activity? a | b Indicate your choice by writing its label.
Output: a
(a: 5.08 µmol/L, b: 7.45 µmol/L)
